Each item that follows carries a reported relative integration efficiency (log2).
# Tested on: VchCAST RNA-guided transposition machinery (E. coli BL21(DE3) host, lacZ target)
# Experimental protocol: relative integration efficiency (T-LR orientation) vs wild-type transposon end (log2 (normalized fold change)); transposon end mutated: right end (5 bp flank + 75 bp right end); higher = more efficient transposition
Could you respond with only the numeric value?

Some solved cases for reference:
ACATTTGTTGATACAACCATAAAATGATAATTACAACCATAAGTTGATATTTTTCACAACCATAAAATGATAATTACTCTGATCATAGTCAGACCAACATTGCTACGACCCGTATTCGCACCGACAC : -0.0321
ACATTTGTTGATACACCCATAAATTGATATTGCCAACCATAAAATGATAATTATCACACCCATAAATTGATAATTACTCTGATCATAGTCAGACCAACATTGCTACGACCCGTATTCGCACCGACAC : -0.568
ACATTTGTGGATACAACCATAAAATGATAATTCACCCATAAATTGATAATTATCACACCCCAATTTAACTATAACGCTCTGATCATAGTCAGACCAACATTGCTACGACCCGTATTCGCACCGACAC : 1.23
ACATTTGTCGATCCAACCATAAAATGATAATTACACCCATAAATTCATCATTATCACACCCAATTTAACTATAACGCTCTGATCATAGTCAGACCAACATTGCTACGACCCGTATTCGCACCGACAC : 1.38
ACATTTGTTGATACAACCATAAAATCTTAATTACACCCATAAATTGATAATTATCACACCCATAAATTGATATTGCCTCTGATCATAGTCAGACCAACATTGCTACGACCCGTATTCGCACCGACAC : -1.09

Lab note: next sequence to report on.
State its relative integration efficiency (log2): ACATTTGTTGATACAACCATAAAATGATAATTCACACCATAAATTGATAATTATCACACCCATAAATTGATATTGCCTCTGATCATAGTCAGACCAACATTGCTACGACCCGTATTCGCACCGACAC -0.473

Just for reference, the supplement of paper PMC10201428 is where these values come from.
